Where these numbers come from: paper PMC9182378

Recorded melting point for the following compounds
recorded.metric: melting point

{"columns": ["compound", "result"],
 "data": [
  ["O=[N+]([O-])C1=NOC2(CCCCCCC2)C1 [Compound 1, 3-Nitro-1-oxa-2-azaspiro[4.7]dodec-2-ene]", "55 to 57 °C"],
  ["O=S(=O)(NC1=NOC2(CCCCCCC2)C1)c1ccc2ccccc2c1 [Compound 5j]", "143 to 145 °C"],
  ["O=S(=O)(NC1=NOC2(CCCCCCC2)C1)c1ccc2c(c1)OCCO2 [Compound 5f]", "192 to 194 °C"],
  ["O=S(=O)(NC1=NOC2(CCCCCCC2)C1)c1ccc(F)cc1F [Compound 5h]", "118 to 119 °C"],
  ["CC(=O)Nc1ccc(S(=O)(=O)NC2=NOC3(CCCCCCC3)C2)cc1 [Compound 5g]", "171 to 173 °C (dec.)"],
  ["O=S(=O)(Cc1ccccc1)NC1=NOC2(CCCCCCC2)C1 [Compound 5b]", "68 to 70 °C"],
  ["Cc1cc(C)c(S(=O)(=O)NC2=NOC3(CCCCCCC3)C2)c(C)c1 [Compound 5e]", "135 to 136 °C"],
  ["O=[N+]([O-])C1=NOC2CCCCCCC12 (centres unmarked) [Compound 2]", "52 to 53 °C"],
  ["O=S(=O)(NC1=NOC2(CCCCCCC2)C1)c1cccs1 [Compound 5k]", "149 to 151 °C"],
  ["O=S(=O)(NC1=NOC2(CCCCCCC2)C1)c1cccnc1 [Compound 5l]", "145 to 146 °C"],
  ["CS(=O)(=O)NC1=NOC2(CCCCCCC2)C1 [Compound 5a]", "110 to 111 °C"],
  ["O=[N+]([O-])c1ccccc1S(=O)(=O)NC1=NOC2(CCCCCCC2)C1 [Compound 5i]", "164 to 165 °C"],
  ["O=S(=O)(NC1=NOC2(CCCCCCC2)C1)c1ccccc1 [Compound 5c]", "156 to 157 °C"],
  ["Cc1ccc(S(=O)(=O)NC2=NOC3(CCCCCCC3)C2)cc1 [Compound 5d]", "122 to 124 °C"]
]}

###

Listing of recorded CC50 by entry.
assay.remarks: in vitro
experimental.context: dog

{"columns": ["molecule", "CC50"],
 "data": [
  ["NC1=NOC2(CCCCCCC2)C1 [Compound 3, 1-Oxa-2-azaspiro[4.7]dodec-2-en-3-amine]", "> 550 µM"],
  ["CC(N)C12CC3CC(CC(C3)C1)C2 (stereo not drawn) [Rimantadine, reference compound]", "406 µM"],
  ["NC1=NOC2CCCCCCC12 (stereo not drawn)", "> 1790 µM"]
]}

###

Measured pIC50 by item
System: MCF-7
assay.remarks: MTT assay cytotoxicity
Assay type: cell-based
experimental.context: Homo sapiens, MCF7, MCF-7 (breast cancer), 72 h
pIC50: −log10 of the molar value.
recorded.metric: pIC50

{"columns": ["compound", "subject.of.test", "result"],
 "data": [
  ["NC1=NOC2CCCCCCC12 (stereo not drawn)", "MCF-7", "< 3.82"],
  ["O=S(=O)(NC1=NOC2(CCCCCCC2)C1)c1cccnc1", "MCF-7", "< 3.82"],
  ["NC1=NOC2(CCCCCCC2)C1 [Compound 3, 1-Oxa-2-azaspiro[4.7]dodec-2-en-3-amine]", "MCF-7", "< 3.82"]
]}
